# assaySystem: T1, caspase-3 (UniProt P42574)
# T1 sequence (looked up): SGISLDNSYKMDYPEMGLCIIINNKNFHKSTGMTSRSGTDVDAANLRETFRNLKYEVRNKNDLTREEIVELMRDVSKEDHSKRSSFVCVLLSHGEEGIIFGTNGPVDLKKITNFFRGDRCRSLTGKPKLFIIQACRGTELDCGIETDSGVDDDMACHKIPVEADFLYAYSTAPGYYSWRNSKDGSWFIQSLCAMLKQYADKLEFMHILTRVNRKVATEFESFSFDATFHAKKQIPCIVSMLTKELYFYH
# protocolDescription: cell-based or functional assay
Numbered stars: 1 amine (or outer) side, 2 acyl side, 3 side chain; on linkers, the order of the positions; unused ones are H or OH. Square brackets hold non-standard residues; d marks the D form. * marks the point of attachment. AAsp = aza-Asp, O=C(N(CC(=O)[*:3])N[*:1])[*:2]; Cbz = O=C(OCc1ccccc1)*; NHBn = c1ccc(CN*)cc1
attributeMeasured: k2 (M⁻¹ s⁻¹)

Field: example entries. Status: answers known.
>>> measured("Cbz-LET[AAsp]-{(S,S)‑EP‑COOCH2Ph} [Cbz-Leu-Glu-Thr-AAsp-(S,S)-EP-COOCH2Ph]")
3520
>>> measured("Cbz-LET[AAsp]-{(S,S)‑EP‑CONHCH2CH2Ph} [Cbz-Leu-Glu-Thr-AAsp-(S,S)-EP-CONHCH2CH2Ph]")
2550

1. Cbz-LET[AAsp]-{(2R,3R)‑EP‑COOEt} [Cbz-Leu-Glu-Thr-AAsp-(2R, 3R)-EP-COOEt]
2. Cbz-LET[AAsp]-{(S,S)‑EP‑CO-Ala-NHBn} [Cbz-Leu-Glu-Thr-AAsp-(S,S)-EP-CO-Ala-NHCH2Ph]
Would you mind telling me which has the lower recorded k2 between 1 and 2 ? Write down the label of the entry you select.
2
